# assayedSystem: pFGFR4 in Huh7 cells (Homo sapiens (Human), UniProt P22455)
# Sequence (P22455 22-802): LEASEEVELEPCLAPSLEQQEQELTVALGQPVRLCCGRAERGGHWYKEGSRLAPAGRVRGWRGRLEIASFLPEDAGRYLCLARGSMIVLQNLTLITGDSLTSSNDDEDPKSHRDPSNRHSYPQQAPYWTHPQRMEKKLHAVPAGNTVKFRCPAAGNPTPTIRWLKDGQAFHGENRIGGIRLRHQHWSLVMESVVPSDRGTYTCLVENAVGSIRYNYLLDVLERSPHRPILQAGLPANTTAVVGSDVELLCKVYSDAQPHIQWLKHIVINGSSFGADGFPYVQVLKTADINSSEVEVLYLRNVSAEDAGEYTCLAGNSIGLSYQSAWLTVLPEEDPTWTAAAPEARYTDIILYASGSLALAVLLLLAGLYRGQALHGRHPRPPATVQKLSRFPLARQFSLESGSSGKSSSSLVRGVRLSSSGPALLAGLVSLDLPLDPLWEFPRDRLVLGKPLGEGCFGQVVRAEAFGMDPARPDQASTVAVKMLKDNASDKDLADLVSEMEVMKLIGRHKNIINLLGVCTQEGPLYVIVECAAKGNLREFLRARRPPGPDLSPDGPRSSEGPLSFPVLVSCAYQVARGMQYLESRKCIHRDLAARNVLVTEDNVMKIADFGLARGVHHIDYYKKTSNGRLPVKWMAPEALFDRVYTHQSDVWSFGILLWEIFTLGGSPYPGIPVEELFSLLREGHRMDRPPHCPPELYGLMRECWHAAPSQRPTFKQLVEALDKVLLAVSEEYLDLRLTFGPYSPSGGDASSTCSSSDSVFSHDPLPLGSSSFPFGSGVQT
# protocolDetails: FGFR4 signaling, Meso Scale assay (MSD), Method B, Huh7
measurementName: EC50

Input: # get_value(readout='EC50', item= C=CC(=O)NC1COCC1Nc1ncc2c(n1)N(Cc1cscn1)C(=O)N(c1c(Cl)c(OC)cc(OC)c1Cl)C2 (stereo not shown) )
Output: < 100 nM

// next item, EC50 requested
Input: # get_value(readout='EC50', item= C=CC(=O)NC1COCC1Nc1ncc2c(n1)N(C)C(=O)N(c1c(F)c(OC)cc(OC)c1F)C2 (stereo not shown) )
Output: < 100 nM

###

# assayedSystem: pFGFR4 in Huh7 cells (Homo sapiens (Human), UniProt P22455)
# protocolDetails: FGFR4 signaling, Meso Scale assay (MSD), Method B, Huh7
pEC50: −log10 of the molar value.
measurementName: pEC50

Solved entries (count: 5):
Input: # get_value(readout='pEC50', item= `C=CC(=O)Nc1cc(N2CCN(C(=O)CCCC(=O)NCCCOCCOCCOCCCNC(=O)CCCC[C@@H]3SC[C@@H]4NC(=O)N[C@@H]43)CC2)ccc1Nc1ncc2c(n1)N(C)C(=O)N(c1c(Cl)c(OC)cc(OC)c1Cl)C2` )
Output: 6.30 to 7.00

Input: # get_value(readout='pEC50', item= C=CC(=O)NC1COCC1Nc1ncc2c(n1)N(C)C(=O)N(c1c(Cl)c(OC)c(OC)c(OC)c1Cl)C2 (centres unmarked) )
Output: < 6.00

Input: # get_value(readout='pEC50', item= C=CC(=O)NC1COCC1Nc1ncc2c(n1)N(Cc1ccn(C)n1)C(=O)N(c1c(Cl)c(OC)cc(OC)c1Cl)C2 (centres unmarked) )
Output: > 7.00

Input: # get_value(readout='pEC50', item= C=CC(=O)NC1COCC1Nc1ncc2c(n1)N(C)C(=O)N(c1c(Cl)c(OC)cc(OC)c1Cl)C2 (centres unmarked) )
Output: > 7.00

Input: # get_value(readout='pEC50', item= `C=CC(=O)Nc1cc(C(F)(F)F)ccc1Nc1ncc2c(n1)N(Cc1ccccc1)C(=O)N(c1c(Cl)c(OC)cc(OC)c1Cl)C2` )
Output: 6.30 to 7.00

More entries:
Input: # get_value(readout='pEC50', item= `C=CC(=O)Nc1ccccc1Nc1ncc2c(n1)N(Cc1ccnc(N)c1)C(=O)N(c1cc(OC)cc(OC)c1)C2` )
Output: > 7.00

Input: # get_value(readout='pEC50', item= `COc1cc(OC)c(Cl)c(N2Cc3cnc(Nc4ccccc4)nc3N(C)C2=O)c1Cl` )
Output: > 7.00

Input: # get_value(readout='pEC50', item= `C=CC(=O)N[C@H]1COC[C@H]1Nc1ncc2c(n1)N(C)C(=O)N(c1c(Cl)c(OC)cc(OC)c1Cl)C2` )
Output: > 7.00

Input: # get_value(readout='pEC50', item= C=CC(=O)NC1CCCCC1Nc1ncc2c(n1)N(Cc1csc(C)n1)C(=O)N(c1c(Cl)c(OC)cc(OC)c1Cl)C2 (centres unmarked) )
Output: 6.30 to 7.00

Input: # get_value(readout='pEC50', item= `C=CC(=O)Nc1ccccc1Nc1ncc2c(n1)N(Cc1cn[nH]c1)C(=O)N(c1cc(OC)cc(OC)c1)C2` )
Output: > 7.00

Input: # get_value(readout='pEC50', item= `C=CC(=O)Nc1cc(N2CCN(CCOC)CC2)ccc1Nc1ncc2c(n1)N(Cc1cccc(NC(=O)CC)c1)C(=O)N(c1cc(OC)cc(OC)c1)C2` )
Output: 6.30 to 7.00

Input: # get_value(readout='pEC50', item= C=CC(=O)NC1CN(C)CC1Nc1ncc2c(n1)N(C)C(=O)N(c1c(Cl)c(OC)cc(OC)c1Cl)C2 (racemic) )
Output: 6.30 to 7.00

Input: # get_value(readout='pEC50', item= C=CC(=O)NC1COCC1Nc1ncc2c(n1)N(CC)C(=O)N(c1c(Cl)c(OC)cc(OC)c1Cl)C2 (centres unmarked) )
Output: > 7.00

Input: # get_value(readout='pEC50', item= `C=CC(=O)Nc1nn(C)cc1Nc1ncc2c(n1)N(C)C(=O)N(c1c(Cl)c(OC)cc(OC)c1Cl)C2` )
Output: > 7.00

Input: # get_value(readout='pEC50', item= C=CC(=O)NC1COCC1Nc1ncc2c(n1)N(C)C(=O)N(c1cc(C(=O)Nc3cccc(C(C)(C)C)c3)ccc1Cl)C2 (centres unmarked) )
Output: > 7.00

Input: # get_value(readout='pEC50', item= C=CC(=O)Nc1ccccc1Nc1ncc2c(n1)N(C1CCCN(C(=O)OC(C)(C)C)C1)C(=O)N(c1cc(OC)cc(OC)c1)C2 (centres unmarked) )
Output: 6.30 to 7.00

Input: # get_value(readout='pEC50', item= `C=CC(=O)N[C@H]1CCCC[C@H]1Nc1ncc2c(n1)N(C)C(=O)N(c1c(Cl)c(OC)c(OC)c(OC)c1Cl)C2` )
Output: < 6.00

Input: # get_value(readout='pEC50', item= `C=CC(=O)Nc1ccccc1Nc1ncc2c(n1)N(C)C(=O)N(c1c(Cl)cccc1Cl)C2` )
Output: 6.30 to 7.00

Input: # get_value(readout='pEC50', item= `C=CC(=O)Nc1cc(C(=O)NC2CCN(C)CC2)ccc1Nc1ncc2c(n1)N(C)C(=O)N(c1cc(OC)cc(OC)c1)C2` )
Output: < 6.00
